Reference for the values: the RNAGym collection of RNA variant scans (doi:10.1073/pnas.2313332121)

Please provide measured polymerase ribozyme fitness (log ratio) for the entries that follow.
B1: TPR t1 (parent)
chain: GACCAAUCUGCCCUCAGAGCUCGAGAACAUCUUCGGAUGCAGAGGAGGCAGGCUUCGGUGGCGCGAUAGCGCCAACGUCCUCAACCUCCAAUGCAUCCCACCACAUGAUGAUGCCUGAAGAGCCUUGGUUUUUUG

variants of: B1; test: polymerase ribozyme fitness, log enrichment relative to wild type (log ratio); higher = more active; in vitro selection for triplet polymerase activity
Give bare numbers.

Look up polymerase ribozyme fitness (log ratio) for the entries below, preserving their order.
1. C11U C34U
2. G69A C79A
3. A2U G35U G69U C79U G120A G128A

1: -3.97; 2: -3.99; 3: -3.99
